Assignment: determine reported tissue uptake at 2 h for the given compounds.
- assayOverview: Ex vivo biodistribution screen of 111In-labeled DOTA-TATE derivatives in normal mice
- Set-up: species or system athymic nude mice
- measurementParameters: athymic nude, mouse, femur, iv, 1 ug per mouse, total radioactivity, normal athymic nude mice, 2 h post-injection, i.v. 1 μg, ex vivo, mean, n = 2–4, read-out: Femur uptake
- Experimental: The panel of 10 compounds were then tested in an initial biodistribution screen of 9 organs assessed in non-tumor-bearing mice at specific timepoints following administration of the radioconjugates. […] Biodistribution, PET Quantification, and Dosimetry […] Radiolabeling efficiency and radiochemical purity were determined by radio -TLC and radio - HPLC. […]
Positions of bridges follow the written chain, without caps; N, C: chain ends. Non-standard residues stand in square brackets, D forms with d. Residues, ends and D or L forms follow the SMILES beside them. *: point of attachment. DOTA = O=C(O)CN1CCN(CC(=O)O)CCN(CC(=O)*)CCN(CC(=O)O)CC1
Give bare numbers, in %ID/g.

INSERT INTO measurements (compound, attributemeasured, valuemeasured) VALUES
  ('C[C@@H](O)[C@H](NC(=O)[C@@H]1CSSC[C@H](NC(=O)[C@@H](Cc2ccccc2)NC(=O)CN2CCN(CC(=O)O)CCN(CC(=O)O)CCN(CC(=O)O)CC2)C(=O)N[C@@H](Cc2ccc(O)cc2)C(=O)N[C@H](Cc2c[nH]c3ccccc23)C(=O)N[C@@H](CCCCN)C(=O)N[C@@H]([C@@H](C)O)C(=O)N1)C(=O)O [^111In-DOTA-TATE, metal not drawn, reference compound]', 'tissue uptake at 2 h', 0.05),
  ('C[C@@H](O)[C@H](NC(=O)[C@@H]1CSSC[C@H](NC(=O)[C@@H](Cc2ccccc2)NC(=O)[C@@H](Cc2ccc(O)cc2)NC(=O)CNC(=O)CN2CCN(CC(=O)O)CCN(CC(=O)O)CCN(CC(=O)O)CC2)C(=O)N[C@@H](Cc2ccc(O)cc2)C(=O)N[C@H](Cc2c[nH]c3ccccc23)C(=O)N[C@@H](CCCCN)C(=O)N[C@@H]([C@@H](C)O)C(=O)N1)C(=O)O [^111In-DOTA-GY*-TATE, metal not drawn] ({DOTA}-G[dY][dF]CY[dW]KTCT-OH; disulfide 4-9)', 'tissue uptake at 2 h', 0.1);

Q: Using the record for CSCC[C@H](NC(=O)CN1CCN(CC(=O)O)CCN(CC(=O)O)CCN(CC(=O)O)CC1)C(=O)N[C@H](C(=O)N[C@@H](CCCCNC(=O)CCCC(=O)N[C@H](Cc1ccccc1)C(=O)N[C@H]1CSSC[C@@H](C(=O)N[C@H](C(=O)O)[C@@H](C)O)NC(=O)[C@H]([C@@H](C)O)NC(=O)[C@H](CCCCN)NC(=O)[C@@H](Cc2c[nH]c3ccccc23)NC(=O)[C@H](Cc2ccc(O)cc2)NC1=O)C(=O)O)C(C)C [^111In-DOTA-MVK(ε)-TATE, metal not drawn] , report its tissue uptake at 2 h.
Ans: 0.31

====

- assayOverview: Ex vivo biodistribution screen of 111In-labeled DOTA-TATE derivatives in normal mice
- Design: species or system athymic nude mice
- measurementParameters: athymic nude, mouse, lung, iv, 1 ug per mouse, total radioactivity, normal athymic nude mice, 2 h post-injection, i.v. 1 μg, ex vivo, mean, n = 2–4, read-out: Lung uptake
Positions of bridges follow the written chain, without caps; N, C: chain ends. Non-standard residues stand in square brackets, D forms with d. Residues, ends and D or L forms follow the SMILES beside them. *: point of attachment. DOTA = O=C(O)CN1CCN(CC(=O)O)CCN(CC(=O)*)CCN(CC(=O)O)CC1
Assignment: determine reported tissue uptake at 2 h for the given molecules.
Numbers only, in %ID/g.

INSERT INTO results (molecule, attributemeasured, valuemeasured) VALUES
  ('C[C@@H](O)[C@H](NC(=O)[C@@H]1CSSC[C@H](NC(=O)[C@@H](Cc2ccccc2)NC(=O)[C@H](Cc2ccc(O)cc2)NC(=O)CNC(=O)CN2CCN(CC(=O)O)CCN(CC(=O)O)CCN(CC(=O)O)CC2)C(=O)N[C@@H](Cc2ccc(O)cc2)C(=O)N[C@H](Cc2c[nH]c3ccccc23)C(=O)N[C@@H](CCCCN)C(=O)N[C@@H]([C@@H](C)O)C(=O)N1)C(=O)O [^111In-DOTA-GY-TATE, metal not drawn] ({DOTA}-GY[dF]CY[dW]KTCT-OH; disulfide 4-9)', 'tissue uptake at 2 h', 1.07);

Now consider the entry below.
Q: Using the record for C[C@@H](O)[C@H](NC(=O)[C@@H]1CSSC[C@H](NC(=O)[C@@H](Cc2ccccc2)NC(=O)[C@@H](Cc2ccc(O)cc2)NC(=O)CNC(=O)CN2CCN(CC(=O)O)CCN(CC(=O)O)CCN(CC(=O)O)CC2)C(=O)N[C@@H](Cc2ccc(O)cc2)C(=O)N[C@H](Cc2c[nH]c3ccccc23)C(=O)N[C@@H](CCCCN)C(=O)N[C@@H]([C@@H](C)O)C(=O)N1)C(=O)O [^111In-DOTA-GY*-TATE, metal not drawn] ({DOTA}-G[dY][dF]CY[dW]KTCT-OH; disulfide 4-9) , report its tissue uptake at 2 h.
Ans: 1.17
